assay_protocol: qHTS of pediatric cancer cell lines to identify multiple opportunities for drug repurposing: Primary screen for A673 cells (AID 1347092); also: nearly all actives have a fitted effect of over 45% in size
recorded_conditions: A673 Ewing sarcoma viability, CellTiter-Glo ATP luminescence, 48 h; series mostly up to 46 µM
Experimental: Drug repurposing or repositioning has been offered as a strategy for drug development in oncology programs. […] We employed a titration-based paradigm (quantitative high-throughput screening or qHTS), where all compounds were tested at multiple concentrations for their effect on cell viability. […] Shen, M et al. Quantitative high-throughput phenotypic screening of pediatric cancer cell lines identifies multiple opportunities for drug repurposing. […]
Records with an inconclusive call do not appear. Activity calls are given as the source filed them. Calls follow the shape of the dose curve; as a rule, active = well fitted cell-killing curve with a large enough effect; inconclusive = small, poorly fitted or top-dose-only effect; inactive = no such curve, though single readings can be large or run the other way.
Bench note: report the call from 1 for active, -1 for inactive

Examples from the recorded data:
smiles_str	group
N#C[C@H](O[C@@H]1O[C@H](CO[C@@H]2O[C@H](CO)[C@H](O)[C@H](O)[C@H]2O)[C@H](O)[C@H](O)[C@H]1O)c1ccccc1	1
COC1=CC(C)=C[C@@H](C)[C@@H](O)[C@@H](C)CC(C)=CC=C[C@H](OC)[C@H]([C@@H](C)[C@@H](O)[C@H](C)[C@@]2(O)C[C@@H](O)[C@H](C)[C@@H](C(C)C)O2)OC1=O	1

State the result this test recorded for "O=C(N[C@H]1CN2CCC1CC2)c1ccc(Cl)cc1" .
1

State the result this test recorded for "CCN1CCN(C(=O)Cc2ccc(Nc3ncc(F)c(Nc4ccc(C(=O)Nc5ccccc5Cl)cc4)n3)cc2)CC1" .
1

State the result this test recorded for "O=C(O)c1cc(Oc2ccc(C(F)(F)F)cc2Cl)ccc1[N+](=O)[O-]" .
-1

State the result this test recorded for "Oc1ccc2c3c1O[C@H]1c4[nH]c5c(c4C[C@@]4(O)[C@@H](C2)N(CC2CC2)CC[C@]314)C[C@@]1(O)[C@H]2Cc3ccc(O)c4c3[C@@]1(CCN2CC1CC1)[C@H]5O4" .
-1

State the result this test recorded for "CC(=O)N(C)c1cccc(-c2ccnc3c(C(=O)c4cccs4)cnn23)c1" .
-1

State the result this test recorded for "C[C@]12COC(=O)C[C@@H]1CC[C@@H]1[C@H]2CC[C@@]2(C)[C@H]1CC[C@]2(C)O" .
-1
